Consider the following compounds; for each one, report its composite z-score.
Molecular target: Left-right determination factor 2 (Homo sapiens)
Test: small molecules binding LEFTY2 protein – biochemical, small-molecule microarray, 635 nm fluorescence scan, primary screen (AID 1110)
Details: higher = more signal
Keep the answer to the number alone.

The value of composite z-score measured for the compound C=C(/C(=C/C[C@@H](OC(C)=O)c1ccccc1OCCO)c1cnc2ccccc2c1)C(C)C turned out to be 0.0798

The compound identified as [N-]=[N+]=NCc1ccccc1C[C@@]1(C(=O)NCCN2CCOCC2)N=C(c2ccc(OCCCO)cc2)O[C@@H]1c1ccccc1CN=[N+]=[N-] registered its composite z-score at 0.461

// CC(C)(C)OC(=O)CC[C@@]1(C(=O)N2CCCCC2)N=C(c2ccc(OCCCO)cc2)O[C@@H]1c1ccccc1CN=[N+]=[N-] : composite z-score value = 0.0083

Record summary for CCCC=C(CCC)[C@@H](NS(=O)(=O)c1ccccc1)c1ccc(C(F)(F)F)cc1 : reported composite z-score = 0.0643

get_value(item= CCCCC(O)C1C=CC2C(=O)N(Cc3ccccc3)C(=O)C2N1n1cnnc1 (stereo unspecified) , readout=composite z-score) returns 0.23

The reported value for COCCOC(=O)N1C(=O)[C@@]2(c3cc(C#CC4(O)CCCCCC4)ccc31)[C@H](C(=O)N1CCc3cc(OC)c(OC)cc3C1)[C@H]1C(=O)O[C@H](c3ccccc3)[C@H](c3ccccc3)N1[C@@H]2c1ccccc1OCCO in terms of composite z-score is 1.17

Sample C=C(CCCC)/C(=C/C[C@H](OC(=O)c1ccncc1)c1ccc(CO)o1)c1cc(C(=O)OC)ccc1OC ; composite z-score observed: 0.982

Per the records, this compound ( COc1ccc(C(=O)Nc2ccc(CN3C(=O)[C@]4(O[C@H](CCn5cc([C@H](O)c6ccccc6)nn5)[C@@H]([Si](C)(C)c5ccc(OC)cc5)[C@@H]4C)c4ccccc43)cc2)cc1 ) has composite z-score equal to -0.48

The recorded composite z-score for entry CCCC[C@H]1OB(O)C[C@H]2C1=C(COc1ccccc1)Cn1c(=O)n(-c3ccccc3)c(=O)n12 equals 0.375

Entry CCOC(=O)C[C@H]1[C@H](OC(=O)Cc2ccc3c(c2)OCO3)[C@@H](NC(=O)c2ccccc2)c2cc(OCCCO)ccc2N1C(=O)c1ccc2ccccc2n1 — recorded composite z-score = 0.11

Noted for COc1ccc([Si](C)(C)[C@@H]2[C@@H](CC(=O)N(CCO)Cc3ccccc3)O[C@]3(C(=O)N(C)c4c(Br)cc(C)cc43)[C@H]2C)cc1 : its composite z-score reads 0.661

Sure, the documented composite z-score for COc1ccc([Si](C)(C)[C@@H]2[C@@H](CCO)O[C@]3(C(=O)N(Cc4ccccc4)c4ccc(N5C(=O)COc6ccccc65)cc43)[C@H]2C)cc1 is 0.0529

COc1ccc(C(=O)Nc2ccc3c(c2)[C@]2(O[C@@H](CCO)[C@H]([Si](C)(C)c4ccc(OC)cc4)[C@H]2C)C(=O)N3Cc2ccccc2)cc1 yielded composite z-score of 0.793

So for COC(=O)[C@@]1(Cc2ccc(F)cc2)[C@H]2c3cc(C(=O)N(C)C)n(CCSCCO)c3C[C@H]2CN1C(=O)c1ccccc1 , the logged composite z-score turned out to be -0.293

// composite z-score value for COC(=O)C(CC#Cc1ccc2c(c1)[C@]1(C(=O)N2)[C@H](c2ccc(O)cc2)N2[C@H](c3ccccc3)[C@H](c3ccccc3)OC(=O)[C@H]2[C@@H]1C(=O)O)C(=O)OC : 0.029

Entry under test: [N-]=[N+]=Nc1ccccc1[C@@H]1OC(c2ccc(OCCCO)cc2)=N[C@]1(CCS(=O)(=O)c1ccccc1)C(=O)NCc1ccccc1 . Its composite z-score was 0.343

Note to self: composite z-score recorded for COC(=O)[C@@]1(Cc2ccc(OC)cc2)[C@H]2c3cc(C(=O)N4CCCC4)n(CCc4ccc(O)c(OC)c4)c3C[C@H]2CN1C(=O)c1ccccc1 was -0.448

// sample CC(C)C(CO)N1C(=O)[C@@H]2[C@H]3C(=O)OCC=C[C@H]3OC23C=CCN(Cn2nnc4ccccc42)C(=O)[C@@H]13 (stereo partly specified) , its composite z-score was -0.734

Data point: Cc1ccc(S[C@]2(C(=O)NCc3ccccc3)CC(=O)N(C3Cc4ccccc4C3)[C@@H]2c2ccc(CO)cc2I)cc1 ; composite z-score = -1.53

Measured composite z-score, COCCOC(=O)N1C(=O)[C@@]2(c3cc(C#CCCO)ccc31)[C@H](c1ccc(OCCO)cc1)N1[C@H](c3ccccc3)[C@H](c3ccccc3)OC(=O)[C@H]1[C@@H]2C(=O)N1CCc2cc(OC)c(OC)cc2C1 : 0.503

For record COCCOC(=O)N1C(=O)[C@@]2(c3cc(C#CCNC(N)=O)ccc31)[C@H](C(=O)N1CCCCCCC1)[C@H]1C(=O)O[C@H](c3ccccc3)[C@H](c3ccccc3)N1[C@@H]2c1ccc(OCCO)cc1 the listed composite z-score is 0.277
